target or test system: EcDXPS (Escherichia coli)
Construct: made in house
Sequence (P77488 whole entry): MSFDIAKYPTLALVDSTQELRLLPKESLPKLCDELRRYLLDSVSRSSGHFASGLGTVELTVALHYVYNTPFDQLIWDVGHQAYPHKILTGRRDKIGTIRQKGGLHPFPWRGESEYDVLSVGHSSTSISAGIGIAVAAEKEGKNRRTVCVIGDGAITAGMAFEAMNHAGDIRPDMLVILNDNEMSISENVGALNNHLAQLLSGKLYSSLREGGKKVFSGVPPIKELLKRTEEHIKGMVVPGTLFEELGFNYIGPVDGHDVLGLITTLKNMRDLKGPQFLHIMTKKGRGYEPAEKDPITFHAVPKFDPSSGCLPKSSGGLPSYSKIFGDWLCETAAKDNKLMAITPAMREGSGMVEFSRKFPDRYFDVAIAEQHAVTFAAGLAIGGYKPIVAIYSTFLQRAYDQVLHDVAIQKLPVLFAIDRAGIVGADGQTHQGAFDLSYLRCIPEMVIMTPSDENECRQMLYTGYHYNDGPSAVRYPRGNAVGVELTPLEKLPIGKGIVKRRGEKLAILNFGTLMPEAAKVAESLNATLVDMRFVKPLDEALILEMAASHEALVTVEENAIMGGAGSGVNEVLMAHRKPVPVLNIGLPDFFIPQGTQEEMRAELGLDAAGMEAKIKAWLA
protocol text: DXPS-IspC coupled assay, apparent Ki on wildtype EcDXPS
Type: biochemical
reported conditions: relative to compound 1
measure name: fold change in Ki^app relative to 1

Answer with the recorded fold change in Ki^app relative to 1 of CC(=O)P(=O)(O)OCCc1cn([C@@H](C(=O)O)c2ccccc2)nn1 only. 8 fold

Fill in fold change in Ki^app relative to 1 for record CC(=O)P(=O)(O)OCCc1cn([C@H](COCc2ccccc2)C(=O)O)nn1 ~5 fold

Name the recorded fold change in Ki^app relative to 1 of the item CC(=O)P(=O)(O)OCCc1cn(C(c2ccccc2)c2ccccc2)nn1.CCN(CC)CC in your answer. ~21 fold

* * *

target or test system: EcDXPS (Escherichia coli)
Construct: made in house
protocol text: DXPS-IspC coupled assay, apparent Ki on wildtype EcDXPS
Format: biochemical
reported conditions: read-out: Ki^app
I'd be grateful if you could share measured Ki for these entries.
Express the result in µM but write the number alone.

State, in one line, measured Ki of CC(=O)P(=O)(O)OCCc1cn([C@H](Cc2ccc(OCc3ccccc3)cc2)C(=O)O)nn1 4.9

Using the record for CC(=O)P(=O)(O)OCCc1cn([C@@H](CO)Cc2ccccc2)nn1 , state its measured Ki. 13.3

Dear colleague, please send me the reported Ki for CC(=O)P(=O)(O)OCCc1cn([C@@H](C(=O)O)C(c2ccccc2)c2ccccc2)nn1 when you can. 0.57
